Attribution: the NIST ThermoML archive (doi:10.1016/j.fluid.2006.07.015)

Reported activity coefficient values follow for various compounds
experiment: activity coefficient (dimensionless); of the first substance listed, at infinite dilution; xn = mol fraction of the nth substance listed; settings: 403.15 K; 101 kPa; Liquid; Chromatography; x1 = 0

compound	activity coefficient
C[C@H]1CC[C@@H](C)CC1 [cis-1,4-dimethylcyclohexane] + CCCCCCCCCCCCCCCCCCC(CCCCCCCCCCCCCCCCCC)CCCCC(CCCCCCCCCCCCCCCCCC)CCCCCCCCCCCCCCCCCC	0.296
C#CCCCCC [1-heptyne] + CCCCCCCCCCCCCCCCCCC(CCCCCCCCCCCCCCCCCC)CCCCC(CCCCCCCCCCCCCCCCCC)CCCCCCCCCCCCCCCCCC	0.401
CC(C)C(C)(C)C [2,2,3-trimethylbutane] + CCCCCCCCCCCCCCCCCCC(CCCCCCCCCCCCCCCCCC)CCCCC(CCCCCCCCCCCCCCCCCC)CCCCCCCCCCCCCCCCCC	0.348
C=CCCCCCCCCCCC [1-tridecene] + CCCCCCCCCCCCCCCCCCC(CCCCCCCCCCCCCCCCCC)CCCCC(CCCCCCCCCCCCCCCCCC)CCCCCCCCCCCCCCCCCC	0.466
CCCCCCCCCCCCC [tridecane] + CCCCCCCCCCCCCCCCCCC(CCCCCCCCCCCCCCCCCC)CCCCC(CCCCCCCCCCCCCCCCCC)CCCCCCCCCCCCCCCCCC	0.479
c1ccccc1 [benzene] + CCCCCCCCCCCCCCCCCCC(CCCCCCCCCCCCCCCCCC)CCCCC(CCCCCCCCCCCCCCCCCC)CCCCCCCCCCCCCCCCCC	0.263
C1CCC2CCCC2C1 (stereo unspecified) [1H-indene, octahydro-] + CCCCCCCCCCCCCCCCCCC(CCCCCCCCCCCCCCCCCC)CCCCC(CCCCCCCCCCCCCCCCCC)CCCCCCCCCCCCCCCCCC	0.269
CCCCCc1ccccc1 [pentylbenzene] + CCCCCCCCCCCCCCCCCCC(CCCCCCCCCCCCCCCCCC)CCCCC(CCCCCCCCCCCCCCCCCC)CCCCCCCCCCCCCCCCCC	0.381
CCCCc1ccccc1 [butylbenzene] + CCCCCCCCCCCCCCCCCCC(CCCCCCCCCCCCCCCCCC)CCCCC(CCCCCCCCCCCCCCCCCC)CCCCCCCCCCCCCCCCCC	0.359
CCCCCCc1ccccc1 [hexylbenzene] + CCCCCCCCCCCCCCCCCCC(CCCCCCCCCCCCCCCCCC)CCCCC(CCCCCCCCCCCCCCCCCC)CCCCCCCCCCCCCCCCCC	0.401
C#CCCCCCCC [1-nonyne] + CCCCCCCCCCCCCCCCCCC(CCCCCCCCCCCCCCCCCC)CCCCC(CCCCCCCCCCCCCCCCCC)CCCCCCCCCCCCCCCCCC	0.438
